# maps each entry to its TGI
- Test system: HOP-92
- TEST: Antiproliferative activity against human HOP-92 cells measured after 48 hrs by SRB assay
- Format: functional, cell-based
- MEASUREMENT CONDITIONS: HOP-92, time 48 hrs
PROPERTY LABEL: TGI (µM)

line_notation=O=C(NCCCNc1cc(-c2cn(-c3ccccc3)nc2-c2cccc(O)c2)ccn1)Nc1cccc(C(F)(F)F)c1 property_label=TGI comparative_sign== quantitative_result=6.01
line_notation=O=C1c2ccccc2-c2n[nH]c3cccc1c23 property_label=TGI comparative_sign=> quantitative_result=100
line_notation=O=C(NCCCNc1cc(-c2cn(-c3ccccc3)nc2-c2cccc(O)c2)ccn1)Nc1ccc(F)cc1 property_label=TGI comparative_sign== quantitative_result=4.97
line_notation=COc1cccc(-c2nn(-c3ccccc3)cc2-c2ccnc(NCCCNC(=O)Nc3ccc(F)cc3)c2)c1 property_label=TGI comparative_sign== quantitative_result=31.1
line_notation=CNC(=O)c1cc(Oc2ccc(NC(=O)Nc3ccc(Cl)c(C(F)(F)F)c3)cc2)ccn1 property_label=TGI comparative_sign== quantitative_result=5.01
line_notation=O=C(Nc1ccc(Cl)c(C(F)(F)F)c1)N1CCN(c2cc(-c3cn(-c4ccccc4)nc3-c3cccc(O)c3)ccn2)CC1 property_label=TGI comparative_sign== quantitative_result=15.9

----------
- Tested on: NCI-H522
- TEST: Antiproliferative activity against human NCI-H522 cells measured after 48 hrs by SRB assay
- Assay type: functional, cell-based
- MEASUREMENT CONDITIONS: NCI-H522, time 48 hrs
PROPERTY LABEL: TGI (µM)

line_notation=O=C1c2ccccc2-c2n[nH]c3cccc1c23 quantitative_result=50.4
line_notation=O=C(NCCCNc1cc(-c2cn(-c3ccccc3)nc2-c2cccc(O)c2)ccn1)Nc1cccc(C(F)(F)F)c1 quantitative_result=11
line_notation=COc1cccc(-c2nn(-c3ccccc3)cc2-c2ccnc(NCCCNC(=O)Nc3ccc(F)cc3)c2)c1 quantitative_result=12
line_notation=O=C(NCCCNc1cc(-c2cn(-c3ccccc3)nc2-c2cccc(O)c2)ccn1)Nc1ccc(F)cc1 quantitative_result=9.49
line_notation=O=C(Nc1ccc(Cl)c(C(F)(F)F)c1)N1CCN(c2cc(-c3cn(-c4ccccc4)nc3-c3cccc(O)c3)ccn2)CC1 quantitative_result=9.26

----------
- Test system: NCI/ADR-RES
- TEST: Antiproliferative activity against human NCI-ADR-RES cells measured after 48 hrs by SRB assay
- Format: functional, cell-based
- MEASUREMENT CONDITIONS: time 48 hrs
PROPERTY LABEL: TGI (µM)

line_notation=O=C(NCCCNc1cc(-c2cn(-c3ccccc3)nc2-c2cccc(O)c2)ccn1)Nc1cccc(C(F)(F)F)c1 quantitative_result=12.8
line_notation=O=C1c2ccccc2-c2n[nH]c3cccc1c23 quantitative_result=59.2
line_notation=CNC(=O)c1cc(Oc2ccc(NC(=O)Nc3ccc(Cl)c(C(F)(F)F)c3)cc2)ccn1 quantitative_result=7.94
line_notation=O=C(Nc1ccc(Cl)c(C(F)(F)F)c1)N1CCN(c2cc(-c3cn(-c4ccccc4)nc3-c3cccc(O)c3)ccn2)CC1 quantitative_result=11.9
line_notation=COc1cccc(-c2nn(-c3ccccc3)cc2-c2ccnc(NCCCNC(=O)Nc3ccc(F)cc3)c2)c1 quantitative_result=25.4
line_notation=O=C(NCCCNc1cc(-c2cn(-c3ccccc3)nc2-c2cccc(O)c2)ccn1)Nc1ccc(F)cc1 quantitative_result=12.5

----------
- SYSTEM UNDER TEST: Mitogen-activated protein kinase 9 (Homo sapiens, UniProt P45984)
- Sequence (P45984 whole entry): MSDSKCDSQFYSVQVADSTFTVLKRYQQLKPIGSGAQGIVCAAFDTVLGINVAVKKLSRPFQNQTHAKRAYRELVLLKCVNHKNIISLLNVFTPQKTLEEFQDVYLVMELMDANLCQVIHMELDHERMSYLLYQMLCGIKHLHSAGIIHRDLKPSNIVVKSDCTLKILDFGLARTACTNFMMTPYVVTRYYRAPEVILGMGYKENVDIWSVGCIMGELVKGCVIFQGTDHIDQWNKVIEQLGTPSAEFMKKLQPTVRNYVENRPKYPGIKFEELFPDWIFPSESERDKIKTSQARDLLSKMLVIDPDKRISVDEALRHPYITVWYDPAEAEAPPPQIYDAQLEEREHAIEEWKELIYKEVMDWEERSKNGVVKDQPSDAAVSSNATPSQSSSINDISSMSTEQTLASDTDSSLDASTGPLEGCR
- TEST: Inhibition of JNK2-alpha-2 (unknown origin)
pIC50: −log10 of the molar value.
PROPERTY LABEL: pIC50

line_notation=O=C(NCCCNc1cc(-c2cn(-c3ccccc3)nc2-c2cccc(O)c2)ccn1)Nc1ccc(F)cc1 quantitative_result=6.00

----------
Measured pIC50 of individual entries
- System: UO-31
- TEST: Antiproliferative activity against human UO-31 cells measured after 48 hrs by SRB assay
- Format: functional, cell-based
- MEASUREMENT CONDITIONS: UO-31, 48 h
pIC50: −log10 of the molar value.
PROPERTY LABEL: pIC50

line_notation=COc1cccc(-c2nn(-c3ccccc3)cc2-c2ccnc(NCCCNC(=O)Nc3ccc(F)cc3)c2)c1 property_label=pIC50 quantitative_result=5.29
line_notation=O=C1c2ccccc2-c2n[nH]c3cccc1c23 property_label=pIC50 quantitative_result=4.98
line_notation=O=C(NCCCNc1cc(-c2cn(-c3ccccc3)nc2-c2cccc(O)c2)ccn1)Nc1cccc(C(F)(F)F)c1 property_label=pIC50 quantitative_result=5.68
line_notation=O=C(Nc1ccc(Cl)c(C(F)(F)F)c1)N1CCN(c2cc(-c3cn(-c4ccccc4)nc3-c3cccc(O)c3)ccn2)CC1 property_label=pIC50 quantitative_result=5.52
line_notation=O=C(NCCCNc1cc(-c2cn(-c3ccccc3)nc2-c2cccc(O)c2)ccn1)Nc1ccc(F)cc1 property_label=pIC50 quantitative_result=5.80

----------
Let's go through some recorded pIC50 values for Cytochrome P450 3A4 (Homo sapiens, UniProt P08684) together.
pIC50: −log10 of the molar value.
PROPERTY LABEL: pIC50

line_notation=O=C(NCCCNc1cc(-c2cn(-c3ccccc3)nc2-c2cccc(O)c2)ccn1)Nc1ccc(F)cc1 property_label=pIC50 quantitative_result=4.73
line_notation=O=C(NCCNc1cc(-c2cn(-c3ccccc3)nc2-c2cccc(O)c2)ccn1)Nc1cccc(C(F)(F)F)c1 property_label=pIC50 quantitative_result=4.69

----------
- System: TK-10
- TEST: Antiproliferative activity against human TK-10 cells measured after 48 hrs by SRB assay
- Format: functional, cell-based
- MEASUREMENT CONDITIONS: TK-10, 48 h
pIC50: −log10 of the molar value.
PROPERTY LABEL: pIC50

line_notation=O=C(Nc1ccc(Cl)c(C(F)(F)F)c1)N1CCN(c2cc(-c3cn(-c4ccccc4)nc3-c3cccc(O)c3)ccn2)CC1 quantitative_result=5.23
line_notation=COc1cccc(-c2nn(-c3ccccc3)cc2-c2ccnc(NCCCNC(=O)Nc3ccc(F)cc3)c2)c1 quantitative_result=4.67
line_notation=O=C1c2ccccc2-c2n[nH]c3cccc1c23 quantitative_result=5.23
line_notation=O=C(NCCCNc1cc(-c2cn(-c3ccccc3)nc2-c2cccc(O)c2)ccn1)Nc1ccc(F)cc1 quantitative_result=5.17
line_notation=O=C(NCCCNc1cc(-c2cn(-c3ccccc3)nc2-c2cccc(O)c2)ccn1)Nc1cccc(C(F)(F)F)c1 quantitative_result=5.24

----------
- Test system: PC-3
- TEST: Antiproliferative activity against human PC-3 cells measured after 48 hrs by SRB assay
- Format: functional, cell-based
- MEASUREMENT CONDITIONS: PC-3, 48 h
PROPERTY LABEL: log10 of IC50 (log10 of the value in nM)

line_notation=O=C(NCCCNc1cc(-c2cn(-c3ccccc3)nc2-c2cccc(O)c2)ccn1)Nc1ccc(F)cc1 property_label="log10 of IC50" quantitative_result=3.12
line_notation=O=C1c2ccccc2-c2n[nH]c3cccc1c23 property_label="log10 of IC50" quantitative_result=4.37
line_notation=COc1cccc(-c2nn(-c3ccccc3)cc2-c2ccnc(NCCCNC(=O)Nc3ccc(F)cc3)c2)c1 property_label="log10 of IC50" quantitative_result=3.79
line_notation=O=C(Nc1ccc(Cl)c(C(F)(F)F)c1)N1CCN(c2cc(-c3cn(-c4ccccc4)nc3-c3cccc(O)c3)ccn2)CC1 property_label="log10 of IC50" quantitative_result=2.99
line_notation=O=C(NCCCNc1cc(-c2cn(-c3ccccc3)nc2-c2cccc(O)c2)ccn1)Nc1cccc(C(F)(F)F)c1 property_label="log10 of IC50" quantitative_result=3.25

----------
TGI values by entry
- Tested on: Hs-578T
- TEST: Antiproliferative activity against human Hs-578T cells measured after 48 hrs by SRB assay
- Assay type: functional, cell-based
- MEASUREMENT CONDITIONS: time 48 hrs
PROPERTY LABEL: TGI (µM)

line_notation=O=C1c2ccccc2-c2n[nH]c3cccc1c23 system_under_test=Hs-578T comparative_sign=> quantitative_result=100
line_notation=O=C(Nc1ccc(Cl)c(C(F)(F)F)c1)N1CCN(c2cc(-c3cn(-c4ccccc4)nc3-c3cccc(O)c3)ccn2)CC1 system_under_test=Hs-578T comparative_sign== quantitative_result=15.8
line_notation=O=C(NCCCNc1cc(-c2cn(-c3ccccc3)nc2-c2cccc(O)c2)ccn1)Nc1ccc(F)cc1 system_under_test=Hs-578T comparative_sign== quantitative_result=5.31
line_notation=COc1cccc(-c2nn(-c3ccccc3)cc2-c2ccnc(NCCCNC(=O)Nc3ccc(F)cc3)c2)c1 system_under_test=Hs-578T comparative_sign== quantitative_result=17.9
line_notation=O=C(NCCCNc1cc(-c2cn(-c3ccccc3)nc2-c2cccc(O)c2)ccn1)Nc1cccc(C(F)(F)F)c1 system_under_test=Hs-578T comparative_sign== quantitative_result=7.74
